System: Nanoluciferase (engineered Oplophorus gracilirostris luciferase)
Experiment: Primary Nanoluciferase (NLuc) qHTS assay for identification of artifact compounds. (AID 1845222);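 also: NLuc secreted into diluted conditioned medium of S16 cells; 0% = DMSO and -100% = no enzyme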
Details: NLuc-conditioned medium, Nano-Glo luminescence, 5 min; series mostly up to 54.1 µM
The source made the active and inactive calls. Calls follow the shape of the dose curve; as a rule, active = well fitted inhibition curve with a large enough effect; inconclusive = small, poorly fitted or top-dose-only effect; inactive = flat fitted curve, though single readings scatter.
Observed property: activity, negative = inhibition

Some entries whose results are on file:
Cc1ccc(C)c(NC(=O)[C@@H]2CCCN2S(=O)(=O)c2cccc3cccnc23)c1	inactive
CCC(C)/C=C(C)/C=C/C1=CC2=C(Cl)C(=O)C(C)(OC(C)=O)C(=O)C2(O)C(OC)O1 (stereo not drawn)	inactive
N#CSc1cc(SC#N)c(N)nc1N	-17.4% [at 11.6 µM] (inactive)
CC(C)n1c(=O)c(C(=O)NC2CC3CCC(C2)N3C[C@@H](O)CN(C)S(C)(=O)=O)cc2ccccc21 (stereo partly drawn)	inactive
COC(=O)C1=COC(O[C@@H]2O[C@H](CO[C@@H]3O[C@H](COC(=O)/C=C\c4ccc(O)cc4)[C@@H](O)[C@H](O)[C@H]3O)[C@@H](O)[C@H](O)[C@H]2O)C2C(CO)=CCC12 (stereo partly drawn)	inactive

Q. Record COc1cc(CN(CCN)C(=O)c2cccs2)ccc1OCc1ccccc1 : what is its activity, negative = inhibition with Nanoluciferase (engineered Oplophorus gracilirostris luciferase)?
A. inactive

Q. Lookup C=C1CC2[C@@]3(C)C=CC(=O)C(C)(C)C3=C(O)C(=O)[C@@]2(C)C2(C(=O)OC)C(=O)C(C)OC(=O)[C@@]12C (stereo partly drawn)
A. inactive

Q. Another compound to check: CCN1CCC[C@@H]1CNC(=O)c1ccc2c(c1)NC(=O)c1cccc(C)c1S2
A. inactive
